The values you see were collected from ChEMBL document CHEMBL1141537.

Reported IC50 is given for each of the following molecules.
assayed-system: Vascular endothelial growth factor receptor 2 (Homo sapiens, UniProt P35968)
Sequence (P35968 whole entry): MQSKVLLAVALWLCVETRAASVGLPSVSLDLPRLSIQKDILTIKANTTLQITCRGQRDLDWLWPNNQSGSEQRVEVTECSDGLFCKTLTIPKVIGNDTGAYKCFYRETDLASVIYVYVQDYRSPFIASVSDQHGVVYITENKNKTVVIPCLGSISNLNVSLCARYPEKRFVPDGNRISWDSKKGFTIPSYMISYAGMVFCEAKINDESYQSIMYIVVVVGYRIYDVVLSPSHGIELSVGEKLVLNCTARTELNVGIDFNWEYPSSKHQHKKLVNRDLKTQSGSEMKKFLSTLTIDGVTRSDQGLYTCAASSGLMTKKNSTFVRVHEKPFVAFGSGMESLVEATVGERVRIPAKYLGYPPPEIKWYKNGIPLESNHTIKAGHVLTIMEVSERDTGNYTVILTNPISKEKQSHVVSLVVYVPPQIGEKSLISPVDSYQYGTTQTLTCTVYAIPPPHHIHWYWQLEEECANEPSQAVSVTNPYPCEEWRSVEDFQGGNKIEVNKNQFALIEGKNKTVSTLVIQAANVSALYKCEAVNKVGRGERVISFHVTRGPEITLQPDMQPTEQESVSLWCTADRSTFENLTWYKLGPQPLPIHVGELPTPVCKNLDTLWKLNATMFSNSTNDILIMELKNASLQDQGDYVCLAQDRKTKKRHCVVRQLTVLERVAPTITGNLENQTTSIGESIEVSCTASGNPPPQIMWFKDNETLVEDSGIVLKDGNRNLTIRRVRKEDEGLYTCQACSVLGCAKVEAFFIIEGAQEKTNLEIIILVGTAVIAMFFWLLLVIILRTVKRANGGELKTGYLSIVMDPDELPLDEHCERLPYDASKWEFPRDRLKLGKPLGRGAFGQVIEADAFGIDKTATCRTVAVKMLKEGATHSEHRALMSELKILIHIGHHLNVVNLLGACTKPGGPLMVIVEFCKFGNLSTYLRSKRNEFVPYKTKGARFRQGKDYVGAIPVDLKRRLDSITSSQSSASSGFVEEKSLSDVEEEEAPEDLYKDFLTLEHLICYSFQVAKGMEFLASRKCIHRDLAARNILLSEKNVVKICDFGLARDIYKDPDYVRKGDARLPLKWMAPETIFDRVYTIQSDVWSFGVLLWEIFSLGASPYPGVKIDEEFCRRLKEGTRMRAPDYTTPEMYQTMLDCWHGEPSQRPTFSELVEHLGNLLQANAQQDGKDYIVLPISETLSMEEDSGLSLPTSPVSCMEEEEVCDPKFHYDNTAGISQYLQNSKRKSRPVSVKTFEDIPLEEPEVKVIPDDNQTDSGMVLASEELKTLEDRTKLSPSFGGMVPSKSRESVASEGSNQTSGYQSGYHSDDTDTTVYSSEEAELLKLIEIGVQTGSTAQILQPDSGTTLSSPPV
assay-info: Inhibition of human recombinant VEGFR2 by HTRF assay
Output spec: scalar in nM, unitless text.

structure-smiles	unit-of-measure	IC50
CO/N=C(\C)c1ccc2c(c1)c1c3c(c4c(c1n2CC(C)C)CCc1nn(C)cc1-4)C(=O)NC3	nM	7

Please find the next molecule below.
Query string: Consider the molecule CCO/N=C(\C)c1ccc2c(c1)c1c3c(c4c(c1n2C(C)C)CCc1nn(C)cc1-4)C(=O)NC3 and give its measured IC50.
Result string: 4

====

assayed-system: Insulin receptor (Homo sapiens)
Sequence (P06213 28-758 limits assumed): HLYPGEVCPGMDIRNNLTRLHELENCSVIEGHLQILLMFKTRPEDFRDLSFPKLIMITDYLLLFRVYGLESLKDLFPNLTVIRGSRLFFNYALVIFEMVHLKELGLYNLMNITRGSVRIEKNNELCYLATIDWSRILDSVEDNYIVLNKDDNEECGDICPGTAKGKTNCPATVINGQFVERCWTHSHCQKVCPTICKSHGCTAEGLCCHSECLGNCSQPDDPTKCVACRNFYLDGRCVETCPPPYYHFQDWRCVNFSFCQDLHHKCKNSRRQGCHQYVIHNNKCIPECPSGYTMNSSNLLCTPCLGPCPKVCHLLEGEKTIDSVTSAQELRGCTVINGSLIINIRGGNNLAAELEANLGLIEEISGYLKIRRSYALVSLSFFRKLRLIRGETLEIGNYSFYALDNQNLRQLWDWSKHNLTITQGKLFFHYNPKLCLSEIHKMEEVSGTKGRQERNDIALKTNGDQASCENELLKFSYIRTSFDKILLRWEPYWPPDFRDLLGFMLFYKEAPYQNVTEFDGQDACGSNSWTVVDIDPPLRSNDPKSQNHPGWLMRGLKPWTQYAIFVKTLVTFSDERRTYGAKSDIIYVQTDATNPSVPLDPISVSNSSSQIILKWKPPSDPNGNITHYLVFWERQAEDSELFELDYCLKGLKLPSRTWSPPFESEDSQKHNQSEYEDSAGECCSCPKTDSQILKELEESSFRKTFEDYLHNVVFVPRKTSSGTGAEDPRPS
Sequence (P06213 763-1382 limits assumed): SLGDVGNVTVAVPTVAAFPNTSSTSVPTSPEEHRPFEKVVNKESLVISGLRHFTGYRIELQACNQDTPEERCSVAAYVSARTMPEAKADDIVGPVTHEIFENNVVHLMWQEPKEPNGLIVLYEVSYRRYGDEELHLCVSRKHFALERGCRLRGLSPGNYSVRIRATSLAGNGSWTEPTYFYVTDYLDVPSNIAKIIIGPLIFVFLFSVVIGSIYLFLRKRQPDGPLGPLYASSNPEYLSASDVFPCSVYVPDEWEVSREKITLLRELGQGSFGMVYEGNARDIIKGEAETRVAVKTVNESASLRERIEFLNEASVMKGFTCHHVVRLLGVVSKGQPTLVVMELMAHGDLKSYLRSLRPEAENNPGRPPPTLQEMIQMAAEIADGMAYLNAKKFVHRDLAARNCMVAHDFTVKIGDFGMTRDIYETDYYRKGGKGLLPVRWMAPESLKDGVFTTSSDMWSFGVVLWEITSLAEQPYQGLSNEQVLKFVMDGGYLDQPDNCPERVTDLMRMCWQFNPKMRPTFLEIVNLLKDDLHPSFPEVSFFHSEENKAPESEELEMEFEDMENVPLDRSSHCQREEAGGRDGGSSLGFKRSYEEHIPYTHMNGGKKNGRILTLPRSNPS
pIC50: −log10 of the molar value.
The following molecules are listed with their measured pIC50 values.

structure-smiles	observed
CCO/N=C(\C)c1ccc2c(c1)c1c3c(c4c(c1n2C(C)C)CCc1nn(C)cc1-4)C(=O)NC3	< 6.00

With those in mind, consider the next molecule.
Query string: Would you kindly share the measured pIC50 for CO/N=C(\C)c1ccc2c(c1)c1c3c(c4c(c1n2CC(C)C)CCc1nn(C)cc1-4)C(=O)NC3 ?
Result string: < 6.00
